B1: SETD8 (parent)
chain: GKQAPRKKAQGKTQQNRKLTDFYP

variants of: B1; assay: protein stability index of a GFP-peptide fusion (GPS, HEK-293T) (PSI 1-6); higher = more stable; conditions: c terminus: a fixed tail appended;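 note: lentivirally expressed fusions sorted by FACS into six bins by GFP to DsRed ratio, PSI derived from sequencing read proportions per bin multiplied by bin number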
Label YES for high-side protein stability index (at or above 3) and NO for low-side protein stability index (below it).

>>> assigned_label("P5G")
"YES"
>>> assigned_label("K8G")
"YES"
>>> assigned_label("K2F")
"YES"

API: above_or_equal(metric=protein stability index, cutoff=3) for item `R6Y` NO

Decide: protein stability index of `R17L` >= 3? NO

Kindly determine if protein stability index recorded for `P5V` is above or exactly 3. YES
